The measurements presented in this section are drawn from PubChem BioAssay.

Property: composite z-score; scope: individual compounds
- Tested on: PRMT1 (protein arginine N-methyltransferase 1)
- assay-details: small molecules binding arginine methyltransferase PRMT1 – biochemical, small-molecule microarray, 635 nm fluorescence, primary screen (AID 1088)
- conditions-used: higher = more signal
parameter: composite z-score

{"compound": "[N-]=[N+]=Nc1ccccc1[C@H]1OC(c2ccc(OCCCO)cc2)=N[C@@]1(CCS(=O)(=O)c1ccccc1)C(=O)N1CCOCC1", "result": 1.55}
{"compound": "COCCOC(=O)N1C(=O)[C@@]2(c3cc(C#CCC(C(=O)OC)C(=O)OC)ccc31)[C@H](c1ccc(OCCO)cc1)N1[C@H](c3ccccc3)[C@H](c3ccccc3)OC(=O)[C@H]1[C@@H]2C(=O)NC[C@H](O)c1ccccc1", "result": 1.53}
{"compound": "COCCOC(=O)N1C(=O)[C@@]2(c3cc(C#CC4=CCCCC4)ccc31)[C@H](c1ccc(OCCO)cc1)N1[C@H](c3ccccc3)[C@H](c3ccccc3)OC(=O)[C@H]1[C@@H]2C(=O)Nc1nc2ccccc2s1", "result": 1.55}
{"compound": "[N-]=[N+]=NCc1ccccc1C[C@@]1(C(=O)NCc2ccccc2)N=C(c2ccc(OCCCO)cc2)O[C@@H]1c1ccccc1CN=[N+]=[N-]", "result": 1.57}
{"compound": "[N-]=[N+]=NCc1ccccc1C[C@]1(C(=O)NCCN2CCOCC2)N=C(c2ccc(OCCCO)cc2)O[C@H]1c1ccccc1CN=[N+]=[N-]", "result": 1.53}
{"compound": "COc1cc(CO)cc(I)c1O[C@H]1C=C(C(=O)NCCO)C[C@@H](N(CCc2cccc(F)c2)C(=O)CCC2CCCC2)[C@@H]1O", "result": 1.55}
{"compound": "O=c1cccc(-c2ccccc2)o1", "result": -0.159}
{"compound": "C=CCOC(=O)[C@@H]1[C@H]2C(=O)O[C@H](c3ccccc3)[C@H](c3ccccc3)N2[C@H](c2ccc(OCCOC(=O)[C@H]3C[C@H]4C(=O)N[C@@H](Cc5ccccc5)C(=O)N4[C@H]3c3ccc(O)cc3)cc2)[C@@]12C(=O)Nc1ccc(I)cc12", "result": 1.54}
{"compound": "CN(C)CCCN1C(=O)[C@@]2(c3ccc([N+](=O)[O-])cc3)CC(=O)N(C3CCCCC3)[C@@H]2c2ccc(CO)cc21", "result": -0.282}
{"compound": "CC(C)NC(=O)[C@@]1(c2ccc([N+](=O)[O-])cc2)CC(=O)N(C(C)C)[C@@H]1c1ccc(CO)cc1", "result": 0.859}
{"compound": "COc1ccc(C#Cc2ccc3c(c2)[C@]2(C(=O)N3)[C@H](C(=O)N3CCc4cc(OC)c(OC)cc4C3)[C@H]3C(=O)O[C@H](c4ccccc4)[C@H](c4ccccc4)N3[C@@H]2c2ccc(OCCO)cc2)cc1", "result": 1.55}
{"compound": "CC(C)(C)OC(=O)CC[C@@]1(C(=O)N2CCOCC2)N=C(c2ccc(OCCCO)cc2)O[C@@H]1c1ccccc1N=[N+]=[N-]", "result": 1.53}
{"compound": "C=C(C)[C@@H]1CC=C(C(O)C2C=CC3C(=O)N(Cc4ccccc4)C(=O)C3N2n2cnnc2)CC1 (stereo partly drawn)", "result": -0.0461}
